# experimental-target: Neurogenic locus notch homolog protein 2 (Homo sapiens) (UniProt Q04721)
# Sequence (Q04721 whole entry, looked up): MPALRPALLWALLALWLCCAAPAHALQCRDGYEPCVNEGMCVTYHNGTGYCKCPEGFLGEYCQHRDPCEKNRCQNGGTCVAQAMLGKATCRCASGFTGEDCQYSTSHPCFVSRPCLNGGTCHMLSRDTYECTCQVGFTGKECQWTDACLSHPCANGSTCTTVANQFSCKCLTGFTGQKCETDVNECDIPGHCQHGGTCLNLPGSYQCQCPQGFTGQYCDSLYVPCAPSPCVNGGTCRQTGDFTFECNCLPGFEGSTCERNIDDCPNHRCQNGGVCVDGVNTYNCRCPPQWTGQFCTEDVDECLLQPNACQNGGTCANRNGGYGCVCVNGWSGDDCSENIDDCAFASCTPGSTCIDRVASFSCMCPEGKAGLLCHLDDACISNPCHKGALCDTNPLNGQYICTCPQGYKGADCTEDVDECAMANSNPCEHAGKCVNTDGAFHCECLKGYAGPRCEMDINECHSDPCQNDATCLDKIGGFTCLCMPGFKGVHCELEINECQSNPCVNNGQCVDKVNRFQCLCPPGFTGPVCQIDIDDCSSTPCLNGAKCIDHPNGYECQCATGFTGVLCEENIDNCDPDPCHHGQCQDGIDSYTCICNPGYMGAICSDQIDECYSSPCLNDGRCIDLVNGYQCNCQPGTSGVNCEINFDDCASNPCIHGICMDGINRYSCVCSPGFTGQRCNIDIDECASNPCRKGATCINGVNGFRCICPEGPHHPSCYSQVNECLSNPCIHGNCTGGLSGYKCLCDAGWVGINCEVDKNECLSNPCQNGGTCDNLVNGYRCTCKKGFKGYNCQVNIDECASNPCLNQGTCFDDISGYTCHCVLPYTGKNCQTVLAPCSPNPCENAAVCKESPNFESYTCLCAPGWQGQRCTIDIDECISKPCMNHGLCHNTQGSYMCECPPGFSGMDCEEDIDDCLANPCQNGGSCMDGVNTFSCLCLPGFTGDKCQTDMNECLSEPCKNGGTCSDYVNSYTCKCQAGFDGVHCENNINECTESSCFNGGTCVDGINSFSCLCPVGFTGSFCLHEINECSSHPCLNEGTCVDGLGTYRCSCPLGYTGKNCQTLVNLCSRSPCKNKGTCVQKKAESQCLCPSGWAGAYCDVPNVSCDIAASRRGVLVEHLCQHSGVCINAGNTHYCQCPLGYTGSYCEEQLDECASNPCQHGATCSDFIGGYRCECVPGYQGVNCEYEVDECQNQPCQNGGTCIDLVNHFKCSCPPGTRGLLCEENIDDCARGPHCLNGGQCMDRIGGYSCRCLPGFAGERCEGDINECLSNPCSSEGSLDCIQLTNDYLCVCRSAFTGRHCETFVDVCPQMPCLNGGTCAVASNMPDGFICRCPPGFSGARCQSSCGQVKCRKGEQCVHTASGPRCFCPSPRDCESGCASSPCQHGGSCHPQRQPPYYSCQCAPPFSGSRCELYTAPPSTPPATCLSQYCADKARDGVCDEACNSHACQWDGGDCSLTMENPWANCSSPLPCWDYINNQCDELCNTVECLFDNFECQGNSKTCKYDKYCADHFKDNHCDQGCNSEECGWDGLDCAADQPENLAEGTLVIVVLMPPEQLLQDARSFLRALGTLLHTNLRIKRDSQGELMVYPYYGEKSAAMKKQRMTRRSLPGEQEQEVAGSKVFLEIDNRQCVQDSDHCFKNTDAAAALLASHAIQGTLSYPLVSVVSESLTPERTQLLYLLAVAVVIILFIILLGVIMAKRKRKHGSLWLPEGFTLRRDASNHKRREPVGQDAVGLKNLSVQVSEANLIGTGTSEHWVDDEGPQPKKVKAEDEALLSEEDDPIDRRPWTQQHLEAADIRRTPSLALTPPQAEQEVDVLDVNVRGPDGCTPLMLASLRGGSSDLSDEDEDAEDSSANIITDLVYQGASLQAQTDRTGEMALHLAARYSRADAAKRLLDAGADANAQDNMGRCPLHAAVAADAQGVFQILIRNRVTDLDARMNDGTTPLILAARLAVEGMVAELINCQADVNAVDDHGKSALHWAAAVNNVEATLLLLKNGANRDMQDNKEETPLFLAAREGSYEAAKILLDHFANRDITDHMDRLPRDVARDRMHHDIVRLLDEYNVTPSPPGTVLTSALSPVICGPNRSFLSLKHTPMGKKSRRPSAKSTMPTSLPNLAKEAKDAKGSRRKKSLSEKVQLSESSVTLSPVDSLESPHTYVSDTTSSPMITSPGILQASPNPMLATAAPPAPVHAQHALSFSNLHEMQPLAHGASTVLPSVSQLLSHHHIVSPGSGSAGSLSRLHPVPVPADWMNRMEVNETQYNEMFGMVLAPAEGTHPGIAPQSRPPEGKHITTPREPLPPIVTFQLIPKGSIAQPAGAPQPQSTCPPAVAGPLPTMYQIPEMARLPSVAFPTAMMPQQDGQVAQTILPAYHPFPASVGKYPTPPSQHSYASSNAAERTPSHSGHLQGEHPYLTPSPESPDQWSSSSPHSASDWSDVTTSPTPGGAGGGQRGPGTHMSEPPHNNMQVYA
# assay-overview: Notch2 binders on small-molecule microarrays, primary screen, biochemical, small-molecule microarray, 635 nm fluorescence, stem cell growth factors (AID 1073)
# setup-conditions: Notch2 binding, higher = more signal
attribute-measured: composite z-score

1) O=C1[C@H]2[C@H]3[C@H](O)[C@H](O)CC(=NOC[C@@H](O)COCc4ccco4)[C@@H]3CC[C@H]2C(=O)N1c1ccc(F)cc1F
0.21
2) Cc1cc2c(nc1C)CCCN2CC(O)CN1CCN(C)CC1 (configuration not stated)
0.273
3) CC(C)CON=C1C[C@@H](O)[C@@H](O)[C@@H]2[C@@H]3C(=O)N([C@@H](C)c4ccccc4)C(=O)[C@@H]3CC[C@H]12
1.01
4) COc1ccc([Si](C)(C)[C@@H]2[C@@H](CCO)O[C@]3(C(=O)N(Cc4ccc(NC(C)=O)cc4)c4ccccc43)[C@H]2C)cc1
1.47
5) CCOC(=O)[C@H](Cc1ccccc1)NC(=O)CCC1CC(OC(=O)NCc2ccc3c(c2)OCO3)CC2(CCCC(COC(=O)NCC3CCCCC3)O2)O1 (some centres not stated)
1.19
6) COc1ccc(O[C@H]2C=C[C@@H](c3ccccc3)O[C@@H]2COC(=O)CCC(C)=NOC(C)CN2CCCCc3nc(C)c(C)cc32)cc1 (some centres not stated)
-0.763
7) CO[C@H]1COC(=O)[C@H](C)NC(=O)[C@@H](C)COC(=O)CC=C[C@@H]1C
-0.0804
